The values you see were collected from paper PMC11348465.

Biological target: ovine COX-2 (Ovis aries)
Construct: purchased Cayman (USA)
Sequence (P79208 17-603): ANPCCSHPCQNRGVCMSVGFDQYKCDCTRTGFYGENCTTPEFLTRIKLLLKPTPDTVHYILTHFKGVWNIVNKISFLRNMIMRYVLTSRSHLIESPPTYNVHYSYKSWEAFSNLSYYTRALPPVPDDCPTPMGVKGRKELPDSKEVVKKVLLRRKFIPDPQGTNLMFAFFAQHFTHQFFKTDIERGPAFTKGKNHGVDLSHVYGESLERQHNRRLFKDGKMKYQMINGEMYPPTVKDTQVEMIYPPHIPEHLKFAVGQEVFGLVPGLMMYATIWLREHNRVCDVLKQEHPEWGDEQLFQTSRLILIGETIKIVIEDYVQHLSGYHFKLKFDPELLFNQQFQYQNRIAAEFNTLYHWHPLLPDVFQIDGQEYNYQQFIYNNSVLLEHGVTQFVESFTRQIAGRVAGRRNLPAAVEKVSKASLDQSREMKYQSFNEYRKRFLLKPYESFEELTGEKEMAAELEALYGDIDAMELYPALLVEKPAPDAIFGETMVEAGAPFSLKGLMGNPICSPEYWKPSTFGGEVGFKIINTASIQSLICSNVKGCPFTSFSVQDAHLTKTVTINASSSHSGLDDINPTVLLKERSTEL
Experiment: Cyclooxygenase-2 inhibition study
Format: biochemical
property-label: inhibition at 100 µM (%)

{"compound": "COc1cc(/C=C/C(=O)O)ccc1O [Compound 24]", "quantitative-readout": 14}

(A) O=C(O)/C=C/C=C/c1ccccc1 [Compound 23]
(B) O=C(O)/C=C/c1cccc(Oc2ccccc2)c1 [Compound 12]
Req: Pick one: A or B . Which has the bigger inhibition at 100 µM number? Refer to your chosen item by its label in the answer.
Resp: B
(B: 39%, A: 9%)

* * *

Molecular target: soybean lipoxygenase (LOX-1) (Glycine max)
Construct: purchased Sigma Chemical, Co. (St Louis, MO, USA)
Sequence (P08170 1-839): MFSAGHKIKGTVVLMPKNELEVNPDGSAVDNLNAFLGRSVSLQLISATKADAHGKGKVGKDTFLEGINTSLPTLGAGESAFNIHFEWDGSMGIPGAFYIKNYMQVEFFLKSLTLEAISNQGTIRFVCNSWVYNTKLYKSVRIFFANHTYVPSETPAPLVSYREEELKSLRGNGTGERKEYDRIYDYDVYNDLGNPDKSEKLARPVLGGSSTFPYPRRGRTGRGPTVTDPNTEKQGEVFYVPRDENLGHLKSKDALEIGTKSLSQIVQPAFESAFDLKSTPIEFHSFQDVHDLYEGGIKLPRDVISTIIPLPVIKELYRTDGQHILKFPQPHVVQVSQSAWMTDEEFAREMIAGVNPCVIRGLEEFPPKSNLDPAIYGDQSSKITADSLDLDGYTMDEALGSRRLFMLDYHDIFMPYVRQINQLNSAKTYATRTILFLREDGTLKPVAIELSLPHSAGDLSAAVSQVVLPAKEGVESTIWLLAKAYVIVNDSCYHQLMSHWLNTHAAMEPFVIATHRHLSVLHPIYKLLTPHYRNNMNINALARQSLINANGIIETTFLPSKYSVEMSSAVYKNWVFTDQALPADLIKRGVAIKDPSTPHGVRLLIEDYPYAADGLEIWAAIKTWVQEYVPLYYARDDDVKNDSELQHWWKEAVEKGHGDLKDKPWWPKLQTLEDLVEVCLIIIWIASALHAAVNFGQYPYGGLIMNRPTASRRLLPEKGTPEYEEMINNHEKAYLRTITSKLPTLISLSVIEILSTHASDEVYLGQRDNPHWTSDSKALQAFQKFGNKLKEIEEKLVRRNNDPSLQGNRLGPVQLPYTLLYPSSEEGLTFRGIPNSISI
Assay: Soybean lipoxygenase inhibition study
Type: biochemical
Conditions: read-out: LOX inhibition (IC50)
Experimental: Our group evaluated an in vitro study as reported previously. The tested hybrids were incubated at room temperature with sodium linoleate (100 µM) and 200 µL of enzyme solution (1/9 X 10^-4 w/v in saline). […] Different concentrations were used for the determination of IC50. A blank determination was used as a negative control. Due to the limited work on sufficiently purified human ALOX-5 isoenzyme, most of the published research was performed on the soybean homolog. […]
property-label: IC50 (µM)

{"molecule": "COC(=O)CC[C@H](NC(=O)/C=C/c1cccc(Br)c1)C(=O)OC [Compound 15c]", "system-name": "soybean lipoxygenase (LOX-1) (Glycine max)", "quantitative-readout": 75}

(a) CCOC(=O)CNC(=O)/C=C/c1ccc(O)c(OC)c1 [Compound 24a]
(b) CCOC(=O)CNC(=O)/C=C/c1cccc(Br)c1 [Compound 15a]
(c) COC(=O)CCC(NC(=O)C=Cc1ccc(O)c(O)c1)C(=O)OC (centres unmarked) [Compound 28c]
Req: Rank by IC50 (largest to smallest). Kindly provide the labels arranged according to the requested ordering.
Resp: a, b, c
(a: 100 µM, b: 57.5 µM, c: 8.5 µM)

(P) COC(=O)CC[C@H](NC(=O)/C=C/c1ccc(OC)c(OC)c1)C(=O)OC [Compound 18c]
(Q) COC(=O)CC[C@H](NC(=O)/C=C/c1cccs1)C(=O)OC [Compound 21c]
Req: // select label with min value of measured IC50 from [ P , Q ] Record your answer as the label of the chosen record.
Resp: P
(P: 57.5 µM, Q: 100 µM)

(1) COC(=O)CC[C@H](NC(=O)/C=C/c1cccc(Oc2ccccc2)c1)C(=O)OC [Compound 12c]
(2) COC(=O)CC[C@H](NC(=O)/C=C/c1ccc(OC(C)=O)cc1)C(=O)OC [Compound 30c]
Req: Hi! Which is lower in terms of IC50, the first one 1 or the second one 2 ? Answer with the label corresponding to your selection.
Resp: 1
